Tested on: Cyclin-dependent kinase 3 (Homo sapiens, UniProt Q00526); further: in the data inactive means no Kd found up to 30 µM
Sequence (Q00526 whole entry): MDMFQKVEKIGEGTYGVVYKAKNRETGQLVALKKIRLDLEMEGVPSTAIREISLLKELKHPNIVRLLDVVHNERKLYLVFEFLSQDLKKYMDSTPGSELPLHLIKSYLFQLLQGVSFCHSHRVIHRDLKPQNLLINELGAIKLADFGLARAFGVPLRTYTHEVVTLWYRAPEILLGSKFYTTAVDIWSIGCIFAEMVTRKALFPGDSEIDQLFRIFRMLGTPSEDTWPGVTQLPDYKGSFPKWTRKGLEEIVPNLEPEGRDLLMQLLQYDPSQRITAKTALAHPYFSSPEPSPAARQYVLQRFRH
Active and inactive are the calls of the source.
Pick one: active, inactive

# fetch the recorded call for COC(=O)[C@@]1(O)C[C@H]2O[C@]1(C)n1c3ccccc3c3c4c(c5c6ccccc6n2c5c31)C(=O)NC4 [K-252A] here
active

# fetch the recorded call for COc1cc(N2CCC(N3CCN(C)CC3)CC2)ccc1Nc1ncnc(Nc2ccccc2S(=O)(=O)C(C)C)n1 [ASP-3026] here
inactive

# fetch the recorded call for C[C@@H](Nc1cc(F)cc(F)c1)c1cc(C(=O)N(C)C)cc2c(=O)cc(N3CCOCC3)oc12 [AZD-8186] here
inactive

# fetch the recorded call for COc1cc2nccc(Oc3ccc(NC(=O)Nc4cc(C)on4)c(Cl)c3)c2cc1OC [TIVOZANIB] here
inactive
